Test system: mice
testDetails: Loss of righting after intravenous administration (mouse)
Format: in vivo
recordedConditions: 20 min, intravenous (lateral tail vein), 20 minute observation, acid addition salts, values corrected for the salts
recordedMetric: ED50 (mg/kg)

>>> measurement("CCOC(=O)c1cc(C(C)=O)n(C(C)c2ccccn2)n1 (stereo not shown) [CH3 / CO2 Et / CH3 CO / N / CH]")
19.7
>>> measurement("CCOC(=O)c1cc(C(=O)OCC)n(Cc2cccnc2)n1 [H / CO2 Et / CO2 Et / CH / N]")
10.4
>>> measurement("CCOC(=O)c1cc(-c2nccs2)nn1C(C)c1ccccn1 (stereo not shown)")
3.2
>>> measurement("CCOC(=O)c1cc(-c2cccs2)n(Cc2ccccn2)n1")
14.3
